Value source: PubChem BioAssay (NCI)

Tested on: TK-10 renal
Assay: NCI-60 one-dose screen, 48 h (100 = growth as untreated, 0 = no growth, -100 = all killed)
Settings: 10 µM unless noted
This is part of a sample that, as a whole, favours compounds with a hit. Of some 83,000 tested, about 20% had one in any assay.
Listed here are compounds together with their documented growth.
recorded metric: growth (%)

| compound | assay system | reported measurement |
| --- | --- | --- |
| COc1cc(/C=C/c2cc(/C=C/c3ccc(O)c(OC)c3)n(-c3ccccc3)c(=O)n2)ccc1O | TK-10 renal | 113 |
| CC[C@H](CC[C@@H](C)[C@H]1CC[C@H]2[C@@H]3/C(=C/c4cccnc4)C(=O)C4=CC(=O)CC[C@]4(C)[C@H]3CC[C@]12C)C(C)C | TK-10 renal | 112 |
| CC/C(=N/NC(N)=O)c1ccccc1 | TK-10 renal | 105 |
| Cc1nn(-c2ccc(Cl)cc2)c(=O)n1CCn1cnc2ccccc21 | TK-10 renal | 108 |
| COc1cc(-c2cc3ncccc3c3nc(OCCN(C)C)c4cccnc4c23)cc(OC)c1OC | TK-10 renal | -82.7 |
| Cc1csc(Nc2nc(-c3ccc(Cl)cc3)nc(C(Cl)(Cl)Cl)n2)n1 | TK-10 renal | 100 |
| O=C(NC1=CC(=O)c2ccccc2C1=O)c1ccccc1 | TK-10 renal | 53.3 |
| Cc1ccc(-c2nc3ccc(Cl)cc3c(=O)n2N2C(=O)CSC2c2ccccc2Cl)cc1 (stereo unspecified) | TK-10 renal | 74.6 |
| COc1cc(NC(C)CN(CC(C)C)C(C)C)c2ncccc2c1 (stereo unspecified) | TK-10 renal | 120 |
| C=C(C)[C@@H]1CC[C@]2(C)CC[C@]3(C)[C@H](CC[C@@H]4[C@@]5(C)CCCNC(C)(C)[C@@H]5CC[C@]43C)[C@@H]12 | TK-10 renal | 142 |
| Oc1ccc(Nc2ccccc2)cc1 | TK-10 renal | 117 |

---

Tested on: SK-MEL-5 melanoma
Assay: NCI-60 one-dose screen, 48 h (100 = growth as untreated, 0 = no growth, -100 = all killed)
Conditions: 10 µM unless noted
The panel holds about 83,000 compounds, 20% with a hit somewhere; the sample as a whole holds those more often.
Criterion: growth strictly less than 40%. Met: Satisfied. Not met: Not satisfied.

| compound | group |
| --- | --- |
| Cn1cc(-c2csc(-c3c[nH]c4ccc(F)cc34)n2)c2cccnc21 | Satisfied |
| COc1ccc(OCC(CO)N2CCN(c3ccccc3)CC2)cc1 (stereo not drawn) | Not satisfied |
| CN1CCN(c2ccc3nc(-c4[nH]ncc4Nc4ncnc5c4OCCCN5)[nH]c3c2)CC1 | Satisfied |
| CC(=O)OCCCCCCn1c2ccccc2c2c3c(c4c5ccccc5n(C)c4c21)C(=O)N(O)C3=O | Not satisfied |
| CC1(C)NC2=C(C(Nc3cccnc3)N1)C(c1ccc([N+](=O)[O-])cc1)C(C(=O)c1ccc(N=[N+]=[N-])cc1)O2 (stereo not drawn) | Not satisfied |
| NC1(N)C=CC2=C(C=C1)C1(N)C3=C(C=CC(N)(N)C=C3)N2C2(N)C3=C(C=CC(N)(N)C=C3)N1C1=C2C=CC(N)(N)C=C1 | Not satisfied |
| Cn1c(/C(C#N)=C/c2ccc3ccccc3c2)cc2ccccc21 | Satisfied |
| COc1ccc(C2CC(=O)c3c(nc4ccc(Cl)cc4c3N)C2)cc1 (stereo not drawn) | Not satisfied |
| CC1(C)C(=O)CC[C@]2(C)[C@H]3C(=O)C=C4[C@@H]5C[C@@](C)(C(=O)NCCNCCN)CC[C@]5(C)CC[C@@]4(C)[C@]3(C)CC[C@@H]12 | Not satisfied |
| C#CCC(C)(O)/C=C/C1=C(C)CCCC1(C)C (stereo not drawn) | Not satisfied |
| C(=C\c1c[nH]c2ccccc12)/c1ccc2ccccc2n1 | Not satisfied |
| COc1ccc(-c2cc(/C=C/C(=O)c3ccc(OC)c(OC)c3)[nH]n2)cc1 | Not satisfied |
| CC(=O)c1c(C)[nH]c(-c2nc3ccc(N4CCN(C)CC4)cc3[nH]2)c1-c1ccc(N(C)C)cc1 | Satisfied |
| NCCNc1nc(-c2ccccc2)nc2nc(-c3ccccc3)oc12 | Not satisfied |
| CC1c2ccccc2N(S(=O)(=O)c2ccccc2)C1C (stereo not drawn) | Not satisfied |
| N#CCCCCCn1c2ccccc2c2c3[nH]c(=O)[nH]c(=O)c3c3c4ccccc4n(CCCCCC#N)c3c21 | Satisfied |
| Cc1cc(Cl)nc(N(CCCNc2ccnc3cc(Cl)ccc23)Cc2ccco2)n1 | Satisfied |
| CC(C)=CCC[C@](C)(O)[C@H]1CC[C@]2(C)[C@@H]1CC[C@@H]1[C@@]3(C)C/C(=C/c4cccc([N+](=O)[O-])c4)C(=O)C(C)(C)[C@@H]3CC[C@]12C | Not satisfied |

---

Tested on: MDA-MB-231 breast
Test: NCI-60 one-dose screen, 48 h (100 = growth as untreated, 0 = no growth, -100 = all killed)
Settings: 10 µM unless noted
About 83,000 compounds went through this panel and 20% of them were active in at least one assay; those are over-represented in the sample as a whole.
# growth values compiled below
recorded metric: growth (%)

| compound | reported measurement |
| --- | --- |
| C/C(=N\Nc1cc(C)c2cc(C)ccc2n1)c1ccccn1 | -89.1 |
| Nc1nc(Br)nc2c1ncn2C1CC(O)C(CO)O1 (stereo unspecified) | 87.2 |
| Cn1cc(-c2csc(-c3cn(C(=O)OC(C)(C)C)c4ccccc34)n2)c2cccnc21 | 65.4 |
| Cn1cc(-c2csc(-c3cn(CCCN4CCCCC4)c4ccc(F)cc34)n2)c2cccnc21 | 64.2 |
| CSc1ccc(N(C)c2nc(C)nc3c2CCC3)cc1 | 10 |
| O=C1C=C(C(O)c2ccc(O)cc2)C(=O)c2ccccc21 (stereo unspecified) | 83.5 |
| COc1ccc2c(c1)c1nc3cc(C)c(C)cc3nc1n2CCN(C)C | -2.89 |
| N#C/C(=C\c1ccc(-c2ccc(Br)cc2)o1)c1nc(-c2ccco2)cs1 | 76 |
| Cc1ccc(NC2CC(=O)N(c3c(C)cc(C)cc3C)C2=O)c(C)c1 (stereo unspecified) | 103 |
| CC(Cc1ccco1)C(=O)NC(N)=O (stereo unspecified) | 110 |
| Cc1nn(-c2ccc(Br)cc2)c2nc3[nH]c(=O)[nH]c(=O)c3nc12 | 110 |

---

System: EKVX NSCLC
Experiment: NCI-60 one-dose screen, 48 h (100 = growth as untreated, 0 = no growth, -100 = all killed)
Conditions: 10 µM unless noted
Compounds without any hit were thinned out: in the full panel of roughly 83,000, 20% have a hit.

| compound | assay system | growth [%] |
| --- | --- | --- |
| Cc1cc(N(CCCNc2ccnc3cc(Cl)ccc23)Cc2ccco2)nc(Cl)n1 | EKVX NSCLC | 43.5 |
| C=C1C(=O)O[C@H]2[C@H]1CC/C(Cn1cc(-c3ccc(OC)cc3)nn1)=C\CC[C@@]1(C)O[C@@H]21 | EKVX NSCLC | 85.4 |
| C=C(C)[C@@H]1CC[C@]2(CN)CC[C@]3(C)[C@H](CC[C@@H]4[C@@]5(C)CCC(=O)NC(C)(C)[C@@H]5CC[C@]43C)[C@@H]12 | EKVX NSCLC | 87.3 |
| C#CCC(C)(O)/C=C/C1=C(C)CCCC1(C)C (stereo not drawn) | EKVX NSCLC | 95.8 |
| CN(C)c1ccc(N=C2C=CC(=O)C=C2)cc1 | EKVX NSCLC | 75.3 |
| C=C(C)[C@@H]1CC[C@]2(C(=O)N3CCCNCC3)CC[C@]3(C)[C@H](CC[C@@H]4[C@@]5(C)CCC(=O)C(C)(C)[C@@H]5CC[C@]43C)[C@@H]12 | EKVX NSCLC | 98.3 |
| Brc1ccc2[nH]cc(-c3nc(-c4c[nH]c5ncccc45)cs3)c2c1 | EKVX NSCLC | 43.9 |
| O=S(=O)(NCCNc1cc(-c2cn(-c3ccccc3)nc2-c2cccc(O)c2)ccn1)c1ccc(Br)cc1 | EKVX NSCLC | 34.9 |

---

Tested on: UACC-62 melanoma
Experiment: NCI-60 one-dose screen, 48 h (100 = growth as untreated, 0 = no growth, -100 = all killed)
Details: 10 µM unless noted
The panel holds about 83,000 compounds, 20% with a hit somewhere; the sample as a whole holds those more often.
Listed next: entries and their corresponding growth.

| compound | growth / % |
| --- | --- |
| CC1(C)C=CC[C@]2(C)[C@H]3CC[C@@H]4[C@H]5[C@H](C(=O)/C=C/c6cccnc6)CC[C@]5(CO)CC[C@@]4(C)[C@]3(C)CC[C@@H]12 | -63.2 |
| O=C(c1ccccc1)C(CN1CCOCC1)c1ccccc1 (stereo not given) | 22.4 |
| Clc1ccccc1-c1nc(Nc2nc3ccccc3s2)nc(C(Cl)(Cl)Cl)n1 | 48.1 |
| COc1ccc(NC(=O)c2ccoc2COc2ccccc2)cc1 | 82.7 |
| Fc1ccc2nc(-c3cc(-c4ccc5c(c4)OCO5)n[nH]3)[nH]c2c1 | 53.7 |
| C=C(C)[C@@H]1CC[C@]2(CN)CC[C@]3(C)[C@H](CC[C@@H]4[C@@]5(C)CCC(=O)NC(C)(C)[C@@H]5CC[C@]43C)[C@@H]12 | 82.5 |
| C/C(=C(/c1ccccc1)c1ccc(N2C(=O)c3cccc4c(NCc5ccccc5)ccc(c34)C2=O)cc1)c1ccccc1 | 80.3 |
| C#Cc1cc2c(N)c(C(=O)c3cc(OC)c(OC)c(OC)c3)[nH]c2cc1OC | 34.7 |
| Cn1cccc1/C=C1/SC(=S)N(CCc2ccc(O)cc2)C1=O | 24.9 |
| Fc1cccc(-c2[nH]nc3nc(Nc4cccnc4)sc23)c1 | 57.2 |
